# studySystem: human androgen receptor (Homo sapiens, UniProt P10275)
# Construct: expressed in transfected cells; host or cells: HEK293
# Sequence (P10275 1-920): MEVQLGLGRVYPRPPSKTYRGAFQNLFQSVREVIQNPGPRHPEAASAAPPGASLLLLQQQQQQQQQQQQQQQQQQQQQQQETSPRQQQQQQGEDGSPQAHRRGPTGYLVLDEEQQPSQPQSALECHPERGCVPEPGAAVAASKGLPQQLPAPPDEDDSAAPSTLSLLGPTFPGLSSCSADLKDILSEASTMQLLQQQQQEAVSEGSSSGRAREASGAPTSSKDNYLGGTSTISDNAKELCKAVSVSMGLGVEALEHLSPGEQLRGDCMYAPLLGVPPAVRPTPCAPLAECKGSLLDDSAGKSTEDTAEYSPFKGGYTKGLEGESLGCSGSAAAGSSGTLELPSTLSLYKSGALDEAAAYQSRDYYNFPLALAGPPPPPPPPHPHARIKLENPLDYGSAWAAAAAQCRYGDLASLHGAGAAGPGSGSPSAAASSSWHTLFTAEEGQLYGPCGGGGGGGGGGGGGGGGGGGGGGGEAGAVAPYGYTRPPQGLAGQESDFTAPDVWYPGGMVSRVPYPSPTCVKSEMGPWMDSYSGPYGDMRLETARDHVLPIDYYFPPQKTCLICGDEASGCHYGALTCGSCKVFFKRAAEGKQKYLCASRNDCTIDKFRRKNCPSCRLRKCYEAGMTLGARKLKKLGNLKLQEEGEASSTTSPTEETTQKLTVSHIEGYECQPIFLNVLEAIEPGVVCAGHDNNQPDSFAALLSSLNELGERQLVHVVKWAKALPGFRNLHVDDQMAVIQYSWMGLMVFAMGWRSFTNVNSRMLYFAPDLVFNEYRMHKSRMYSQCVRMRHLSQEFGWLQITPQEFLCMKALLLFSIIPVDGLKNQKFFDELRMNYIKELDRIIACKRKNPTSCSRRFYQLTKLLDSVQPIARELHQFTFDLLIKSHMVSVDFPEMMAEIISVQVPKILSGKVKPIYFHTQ
# assayText: Reporter assay of an androgen receptor responsive sequence (luciferase, transiently transfected HEK293 cells)
# Type: cell-based
# experimentalSetup: 24 hours incubation, relative to activity of 100 nM DHT, read-out: AR transcriptive activity (pEC50) (converted)
measurementKind: EC50

*Q* For the record CCS(=O)(=O)NC(=O)c1nc(N(CCc2ccc(C#N)cc2)CC2CCCCC2)sc1C [Compound 717] , what value of EC50 is listed for human androgen receptor (Homo sapiens, UniProt P10275)?
*A* > 10 µM

*Q* Entry Cc1oc(N(CCc2ccc(Cl)cc2)Cc2ccc(F)cc2)nc1C(=O)NS(C)(=O)=O [Compound 550] , system human androgen receptor (Homo sapiens, UniProt P10275): what EC50 was measured?
*A* 0.251 µM

*Q* Fill in the recorded EC50 for this compound, with human androgen receptor (Homo sapiens, UniProt P10275) as test system: Cc1oc(N(Cc2cccc(C#N)c2)c2ccc(C#N)cc2)nc1C(=O)NS(C)(=O)=O [Compound 617]
*A* > 10 µM

###

# studySystem: androgen receptor (AR-LBD) (Rattus norvegicus)
# Construct: 5 μL of 2×AR-LBD/Fluoromone AL Red Complex contained in the kit; purchased Invitrogen
# assayText: Evaluation of androgen receptor affinity (PolarScreen Androgen Receptor Competitor Assay Kit, Red; fluorescence polarization)
# experimentalSetup: 22° C. for 5 hours, relative to binding rate of 1 μM DHT, read-out: AR affinity (pEC50) (converted)
Consider the following compounds; for each one, report its EC50.
Numbers only; they are read as nM.

*Q* Which EC50 is reported for this compound? CC(C)=CCN(c1ccc(C#N)cc1)c1nc(C(=O)NS(C)(=O)=O)c(C)s1 [Compound 439]
*A* 50.1

*Q* GET /values?readout=EC50&item= COCCCS(=O)(=O)NC(=O)c1nc(N(Cc2ccc(OC(F)F)cc2)c2ccc(C#N)cc2)sc1C1CC1 [Compound 666]
*A* 39.8

*Q* Look up EC50: Cc1sc(N(CCc2ccc(Cl)c(Cl)c2)Cc2ccccc2)nc1C(=O)NS(C)(=O)=O [Compound 710]
*A* 50.1

Data credit: patent US10689354B2
